# Assay explanation: Inhibition of NS5B polymerase C316Y mutant in HCV genotype 1A infected in HuH7 cells after 40 hrs by Taqman probe based RT-PCR analysis
Measurement name: pEC50
Quick note: pEC50 values are minus log10 of concentrations in mol/L.

Entry smiles: CNC(=O)c1c(-c2ccc(F)cc2)oc2cc(N(C)S(C)(=O)=O)c(-c3ccc4c(n3)-c3cc5c(F)cccc5n3CC4)cc12
pEC50: 8.08

Entry smiles: CNC(=O)c1c(-c2ccc(F)cc2)oc2cc(N(C)S(C)(=O)=O)c(-c3ccc4c(n3)-c3cc5c(F)cccc5n3CCC4)cc12
pEC50: 7.59

Entry smiles: CNC(=O)c1c(-c2ccc(F)cc2)oc2cc(N(C)S(C)(=O)=O)c(-c3ccc4c(n3)-c3cc5c(F)cccc5n3CCCC4)cc12
pEC50: 7.89

Entry smiles: CNC(=O)c1c(-c2ccc(F)cc2)oc2cc(N(C)S(C)(=O)=O)c(-c3ccc4c(n3)-c3cc5c(F)cccc5n3CN4)cc12
pEC50: 8.12

Entry smiles: CNC(=O)c1c(-c2ccc(F)cc2)oc2cc(N(C)S(C)(=O)=O)c(-c3ccc4c(n3)-c3cc5c(F)cccc5n3C4)cc12
pEC50: 8.02

Entry smiles: CNC(=O)c1c(-c2ccc(F)cc2)oc2cc(N(C)S(C)(=O)=O)c(-c3ccc4ccn5c6cccc(F)c6cc5c4n3)cc12
pEC50: 7.96

Query string: So what's the measured pEC50 for this one? "CNC(=O)c1c(-c2ccc(F)cc2)oc2cc(N(C)S(C)(=O)=O)c(-c3ccc4ncn5c6cccc(F)c6cc5c4n3)cc12"
Result string: 8.51

Query string: Request the reported pEC50 associated with "CNC(=O)c1c(-c2ccc(F)cc2)oc2cc(N(C)S(C)(=O)=O)c(-c3cc4n(c(=O)c3)CCn3c-4cc4c(F)cccc43)cc12"
Result string: 8.01
